Origin of values: PubChem BioAssay

assay: growth suppression of yeast trafficking mutant, preliminary HTS, modulators of trafficking downstream of Golgi apparatus project, 1536-format plate, OD 615 nm (AID 637); conditions: yeast transport mutant growth, absorbance 615 nm, 18 h; stronger effect = higher value
Square brackets hold non-standard residues; d marks the D form. Peptide text beside a SMILES is read from it. * marks the point of attachment. ξ: configuration not given here. Piv = CC(C)(C)C(=O)*; ξNva = CCCC(N)C(=O)O
result-type: inhibition (%)

[[record]]
molecule = "COc1cc(Cn2c(C(=O)O)cc3sccc32)cc(OC)c1OC"
result_type = "inhibition"
readout_units = "%"
numeric_readout = 6.56

[[record]]
molecule = "O=C(CSc1nc(O)c(Cc2ccccc2)c(=O)[nH]1)Nc1ccccc1"
result_type = "inhibition"
readout_units = "%"
numeric_readout = -2.33

[[record]]
molecule = "CCc1nn2c(=O)cc(CSc3nc4sc5c(c4c(=O)n3C)CCCC5)nc2s1"
result_type = "inhibition"
readout_units = "%"
numeric_readout = 10

[[record]]
molecule = "CCOC(=O)c1cccc(NC(=O)CSc2nnc(-c3ccoc3C)n2CCOC)c1"
result_type = "inhibition"
readout_units = "%"
numeric_readout = 0.81

[[record]]
molecule = "COc1ccc(CC(=O)OCC(=O)NC(=O)NC2CCCCC2)cc1"
result_type = "inhibition"
readout_units = "%"
numeric_readout = -0.73

[[record]]
molecule = "COc1ccc(CCNS(=O)(=O)c2ccc3oc(C(=O)O)c(C)c3c2)cc1OC"
result_type = "inhibition"
readout_units = "%"
numeric_readout = 1.15

[[record]]
molecule = "Cc1ccc(CNC(=O)CSc2n[nH]c(N)n2)cc1"
result_type = "inhibition"
readout_units = "%"
numeric_readout = 5.9

[[record]]
molecule = "CCCC(NC(=O)CNC(=O)C(C)(C)C)C(=O)O (stereo not drawn) (Piv-Gly-[ξNva]-OH)"
result_type = "inhibition"
readout_units = "%"
numeric_readout = -3.71

[[record]]
molecule = "COCCN(CCOC)S(=O)(=O)c1ccc(C(=O)Nc2nnc(C3CC3)o2)cc1"
result_type = "inhibition"
readout_units = "%"
numeric_readout = 1.48

[[record]]
molecule = "CS(=O)(=O)N1CCCC(C(=O)NCCCN2CCc3ccccc3C2)C1 (stereo not drawn)"
result_type = "inhibition"
readout_units = "%"
numeric_readout = -8.89

[[record]]
molecule = "O=C(CCCc1cccs1)Nc1nc2c(s1)CCCC2"
result_type = "inhibition"
readout_units = "%"
numeric_readout = 0.82

[[record]]
molecule = "COc1ccc(CCNC(=O)C2CCN(C(=O)N(C)C)CC2)cc1OC"
result_type = "inhibition"
readout_units = "%"
numeric_readout = -4.67

[[record]]
molecule = "COc1ccc(-c2noc(CSc3nc(N)c(-c4ccccc4)c(=O)[nH]3)n2)cc1OC"
result_type = "inhibition"
readout_units = "%"
numeric_readout = -3.97

[[record]]
molecule = "CCCCn1c(NCCC)nc2c1c(=O)[nH]c(=O)n2C"
result_type = "inhibition"
readout_units = "%"
numeric_readout = -0.66

[[record]]
molecule = "CCc1nnc(NC(=O)CN2CCN(c3ccccc3OC)CC2)s1"
result_type = "inhibition"
readout_units = "%"
numeric_readout = -5.56

[[record]]
molecule = "COC(=O)CCC(=O)Nc1cccc(Cl)c1"
result_type = "inhibition"
readout_units = "%"
numeric_readout = -2.54

[[record]]
molecule = "O=C(c1ccco1)N1CCN(S(=O)(=O)c2ccc(Oc3ccccc3)cc2)CC1"
result_type = "inhibition"
readout_units = "%"
numeric_readout = 5.74

[[record]]
molecule = "COc1ccccc1NC(=O)CSc1nnc(-c2ccncc2)n1CC1CCCO1 (stereo not drawn)"
result_type = "inhibition"
readout_units = "%"
numeric_readout = -3.81

[[record]]
molecule = "O=C(c1ccccc1)c1ccc(N2CCOCC2)c(NC(=O)c2ccco2)c1"
result_type = "inhibition"
readout_units = "%"
numeric_readout = 2.86

[[record]]
molecule = "Cc1cccc(NC(=O)CCN2CCN(C/C=C/c3ccccc3)CC2)c1"
result_type = "inhibition"
readout_units = "%"
numeric_readout = 3.23

[[record]]
molecule = "CCOc1cc(C)c(Cl)cc1S(=O)(=O)N(C)C"
result_type = "inhibition"
readout_units = "%"
numeric_readout = -2.1

[[record]]
molecule = "Cc1ccc(NC(=O)c2ccc(NS(=O)(=O)c3c(C)noc3C)cc2)cc1C"
result_type = "inhibition"
readout_units = "%"
numeric_readout = -4.55

[[record]]
molecule = "O=C(Cn1cccc1)N1CCN(C(c2ccccc2)c2ccccc2)CC1"
result_type = "inhibition"
readout_units = "%"
numeric_readout = 4.33


====

molecular target: Receptor tyrosine-protein kinase erbB-2 (Homo sapiens); assay: reducers of endogenous Her2 protein level, primary screen, SKBR3 breast tumor cells, AlphaScreen, ATP viability (AID 461); settings: 18-24 h, at 10 µM, stronger effect = lower value;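 as to Her2 level: lower value means less Her2 protein in the cells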;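 as to viability: percent of carrier control wells set as 100% viability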
result-type: Her2 level (%)

[[record]]
compound = "Cc1ccc(/C(O)=C2\\C(=O)C(=O)N(CCCN(C)C)C2c2ccccn2)cc1 (stereo unspecified)"
result_type = "Her2 level"
readout_units = "%"
numeric_readout = 93

[[record]]
compound = "CC(C)CCN1CC(C(=O)NCc2ccccc2)CC1=O (stereo unspecified)"
result_type = "Her2 level"
readout_units = "%"
numeric_readout = 87.5

[[record]]
compound = "O=C(O)CCNc1nc(-c2ccccc2)nc2ccccc12"
result_type = "Her2 level"
readout_units = "%"
numeric_readout = 102

[[record]]
compound = "CCOC(=O)N1CCN(C(=O)CN2C(=O)COc3ccc(C)cc32)CC1"
result_type = "Her2 level"
readout_units = "%"
numeric_readout = 94.5

[[record]]
compound = "Cc1ccc(S(=O)(=O)C2(C(=O)Nc3nccs3)CC2)cc1"
result_type = "Her2 level"
readout_units = "%"
numeric_readout = 95

[[record]]
compound = "COc1ccc(-c2nn3c(-c4ccncc4)nnc3s2)cc1OC"
result_type = "Her2 level"
readout_units = "%"
numeric_readout = 116

[[record]]
compound = "COc1ccccc1N1CCN(C(=O)c2ccc(CS(=O)(=O)c3ccccc3OC)o2)CC1"
result_type = "Her2 level"
readout_units = "%"
numeric_readout = 104

[[record]]
compound = "Cc1ccsc1C1C2=C(CCCC2=O)Nc2ncnn21 (stereo unspecified)"
result_type = "Her2 level"
readout_units = "%"
numeric_readout = 100

[[record]]
compound = "Cc1onc(-c2ccccc2)c1C(=O)Nc1ccnn1C1CCCCC1"
result_type = "Her2 level"
readout_units = "%"
numeric_readout = 97.5

[[record]]
compound = "COC(=O)c1cc(Br)c(=O)n(Cc2cccnc2)c1"
result_type = "Her2 level"
readout_units = "%"
numeric_readout = 81.5

[[record]]
compound = "N[C@@H](Cc1ccccc1)c1nnc2sc(SCc3ccccc3)nn12"
result_type = "Her2 level"
readout_units = "%"
numeric_readout = 84.5


====

compounds and their reported viability
test: reducers of endogenous Her2 protein level, primary screen, SKBR3 breast tumor cells, AlphaScreen, ATP viability (AID 461); details: 18-24 h, measured here: SKBR3 viability, ATP luminescence, at 10 µM;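 as to viability: percent of carrier control wells set as 100% viability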
result-type: viability (%)

[[record]]
compound = "Cc1noc(C)c1COc1cccc(C(=O)Nc2ccc(C#N)cc2)c1"
numeric_readout = 96

[[record]]
compound = "O=C1CCCc2c1cc(C(=O)NCc1ccco1)c(=O)n2-c1ccc(Cl)cc1"
numeric_readout = 88

[[record]]
compound = "CCOc1ccc2[nH]c(=O)c(CN(Cc3ccccc3)C(=O)N3CCCC3)cc2c1"
numeric_readout = 100

[[record]]
compound = "COc1ccc(-c2nnc(SCCC(=O)O)n2-c2ccccc2)cc1"
numeric_readout = 113

[[record]]
compound = "Cn1nnnc1SCC(=O)NCc1ccco1"
numeric_readout = 95

[[record]]
compound = "Cn1c(SCC(N)=O)nnc1C1CCN(C(=O)NCc2ccccc2)CC1"
numeric_readout = 88

[[record]]
compound = "N#Cc1cnc(SCC(=O)Nc2ccccc2C(F)(F)F)nc1N"
numeric_readout = 88.5

[[record]]
compound = "Cc1ccc2cc(C#N)c(NCCCNC(=O)C3CCCO3)nc2c1 (stereo unspecified)"
numeric_readout = 106

[[record]]
compound = "Cc1nc(SCCC(=O)O)c2ccccc2n1"
numeric_readout = 98

[[record]]
compound = "Cc1cccc(COc2ccc(/C(O)=C3\\C(=O)C(=O)N(CCN(C)C)C3c3ccncc3)cc2)c1 (stereo unspecified)"
numeric_readout = 108

[[record]]
compound = "CCC(C)(C)n1nnnc1C(c1ccc(OC)c(OC)c1)N1CCN(c2ccc(F)cc2)CC1 (stereo unspecified)"
numeric_readout = 80

[[record]]
compound = "O=C(Oc1ccc2c(c1)CCC2)N1CCOCC1"
numeric_readout = 90

[[record]]
compound = "COC(=O)C1=C(C)NC(=O)C1(Nc1ccc(Cl)cn1)C(F)(F)F (stereo unspecified)"
numeric_readout = 90.5

[[record]]
compound = "O=C(O)C1CC(=O)N(c2ccc(OCc3ccccc3Cl)cc2)C1 (stereo unspecified)"
numeric_readout = 83

[[record]]
compound = "CC(C)CCN1CC(C(=O)NCc2ccccc2)CC1=O (stereo unspecified)"
numeric_readout = 88.5

[[record]]
compound = "CCN(CC)c1ccc(CNc2ccc(Br)cn2)cc1"
numeric_readout = 108

[[record]]
compound = "COC(=O)c1sc(NC(=O)c2ccoc2C)nc1C"
numeric_readout = 110

[[record]]
compound = "O=C(CSc1nnc(Cc2cccs2)n1Cc1ccco1)Nc1cccc(Cl)c1"
numeric_readout = 82.5

[[record]]
compound = "CC(Oc1ccccc1)C(=O)N1CCCc2ccccc21 (stereo unspecified)"
numeric_readout = 101

[[record]]
compound = "Cc1ccc(CNC(=O)C2CCCN(S(=O)(=O)c3cccnc3)C2)cc1 (stereo unspecified)"
numeric_readout = 92.5

[[record]]
compound = "Cc1noc(COc2ccccc2OCC(O)CNC(C)(C)C)n1 (stereo unspecified)"
numeric_readout = 101

[[record]]
compound = "Cc1ccc(OCC(O)Cn2c(=N)n(CCN3CCCCC3)c3ccccc32)cc1 (stereo unspecified)"
numeric_readout = 79

[[record]]
compound = "O=C(Nc1ccc(F)cc1)c1cccc2c1C(=O)N(Cc1ccccn1)C2"
numeric_readout = 95.5

[[record]]
compound = "CCCn1c(NCc2ccc3c(c2)OCO3)nc2ccccc21"
numeric_readout = 94

[[record]]
compound = "Cc1ccccc1C(=O)Nc1c(C(=O)N2CCCC2)cnn1-c1ccccc1"
numeric_readout = 112

[[record]]
compound = "CCOC(=O)N1CCN(S(=O)(=O)c2ccc(F)c(C(=O)Nc3cc(C)cc(C)c3)c2)CC1"
numeric_readout = 76

[[record]]
compound = "Cc1cc(O)c(C2(C(F)(F)F)NCCNC2=O)cc1C (stereo unspecified)"
numeric_readout = 100

[[record]]
compound = "O=C1N2c3ccccc3CCc3cccc(c32)C1(O)C(F)(F)F (stereo unspecified)"
numeric_readout = 94.5

[[record]]
compound = "CCCCCn1c(CN2CCN(C(=O)OCC)CC2)nc2c1c(=O)[nH]c(=O)n2C"
numeric_readout = 82

[[record]]
compound = "CCC(=O)N1Cc2ccccc2-c2ccccc2C1=O"
numeric_readout = 102

[[record]]
compound = "CCOC(=O)N1CCN(C(=O)CSc2nnc(Cc3ccccc3)o2)CC1"
numeric_readout = 92.5

[[record]]
compound = "CCOC(=O)CCCn1nc(C)n2c(cc3sccc32)c1=O"
numeric_readout = 87.5

[[record]]
compound = "O=C1CN=C(Nc2cccc(C(F)(F)F)c2)N1C1CCCC1"
numeric_readout = 97

[[record]]
compound = "N#CCc1c(C#N)c(N)nc(N2CCN(S(=O)(=O)c3ccccc3)CC2)c1C#N"
numeric_readout = 74

[[record]]
compound = "CCOC(=O)N1CCN(C(=O)COc2ccc(Br)cc2Cl)CC1"
numeric_readout = 96

[[record]]
compound = "CCC(=O)Nc1c(C#N)c2nc3ccccc3nc2n1-c1ccccc1C"
numeric_readout = 95

[[record]]
compound = "CCC1C(=O)n2nc(-c3ccccc3)cc2N=C1C (stereo unspecified)"
numeric_readout = 106

[[record]]
compound = "COC(=O)C1=C(C)OC(N)=C(C#N)C1c1ccccc1 (stereo unspecified)"
numeric_readout = 94.5

[[record]]
compound = "COc1ccc(CCNC(=O)C2CCN(Cc3nc(-c4cccc(Cl)c4)oc3C)CC2)cc1OC"
numeric_readout = 83.5

[[record]]
compound = "O=C(NCc1cccs1)C1CC(=O)N(c2ccccc2)C1 (stereo unspecified)"
numeric_readout = 96.5

[[record]]
compound = "Cn1c(=O)c2c(nc(SCc3nn[nH]n3)n2Cc2ccccc2F)n(C)c1=O"
numeric_readout = 97.5

[[record]]
compound = "C=CCSc1nc2c(c(=O)[nH]c(=O)n2C)n1C(C)C"
numeric_readout = 85.5

[[record]]
compound = "O=C(Nc1ccc(-c2noc(-c3cccs3)n2)cc1)c1cccnc1"
numeric_readout = 74.5

[[record]]
compound = "Cc1nc(=S)n(-c2ccccc2)[nH]1"
numeric_readout = 104

[[record]]
compound = "Cc1ccc(S(=O)(=O)N2C(=O)CCC2C(=O)Nc2ccc3c(c2)OCCO3)cc1 (stereo unspecified)"
numeric_readout = 109

[[record]]
compound = "COCC(=O)N(Cc1nc2ccccc2c(=O)[nH]1)Cc1cccs1"
numeric_readout = 103

